Provenance of the data: paper PMC4703546

System: all c-Met-dependant cell lines
Assay: MTT proliferation assay, panel summary
Type: cell-based
Conditions: Homo sapiens, read-out: IC50 range, antiproliferative activity
pIC50: −log10 of the molar value.
Quick reference: pIC50 of the listed items.
Result Type: pIC50

Structure Notation	Test Result
C=CC(C)(C)[C@@]12C[C@H]3C(=O)N/C(=C/c4c[nH]cn4)C(=O)N3[C@@H]1Nc1ccccc12	4.40 to 4.70
C=CC(C)(C)[C@@]12C=C(O)C(=O)N3/C(=C/c4cnc[nH]4)C(=O)N[C@]31N(OC)c1ccccc12	5.05 to 5.74
O=C1N[C@@H](Cc2c[nH]c3ccccc23)C(=O)N/C1=C/c1cnc[nH]1	4.40 to 4.70
